# Tested on: PA 2108 (MDR)
# experiment: Broth microdilution antibacterial activity
# Type: cell-based, Pseudomonas aeruginosa
# assay context: Pseudomonas aeruginosa, read-out: MIC PA 2108 (MDR)
Recorded MIC for the following compounds
Field: numeric (µg/mL). Do not append units.

Report measured MIC; entry is CN1CCN(CCNCc2cc3cc(-c4ccccc4)ccc3nc2SCc2ccccc2)CC1 32

====

A set of molecules tested on AB 17978, with measured MIC:
Response body: numeric value in µg/mL, unit text excluded.

// known answers, use as guide
{"smiles input": "c1ccc(CSc2nc3ccccc3cc2CNCc2ccc(CN3CCCC3)cc2)cc1", "scale unit": "µg/mL", "MIC": 32}
{"smiles input": "Brc1ccc2nc(SCc3ccccc3)c(CNCCC3CCN(C4CCCC4)CC3)cc2c1", "scale unit": "µg/mL", "MIC": 16}
{"smiles input": "COc1cc2cc(CNCCN3CCN(C)CC3)c(SCc3ccccc3)nc2c(OC)c1OC", "scale unit": "µg/mL", "MIC": 128}

Tell me measured MIC for c1ccc(CSc2nc3ccc(-c4ccccc4)cc3cc2CNCCC2CCN(C3CCCC3)CC2)cc1 please. 32

Dear colleague, please send me the reported MIC for CN1CCN(CCNCc2cc3cc(Br)ccc3nc2SCc2ccccc2)CC1 when you can. 8

Please give measured MIC of the following entry: CN1CCN(CCNCc2cc3ccccc3nc2SCc2ccccc2)CC1 64

Identify the reported MIC for the following entry. CCN1CCC(CCNCc2cc3cc(OC)c(OC)c(OC)c3nc2SCc2ccccc2)CC1 128

Name the recorded MIC of the item CCN1CCC(CCNCc2cc3cc(Br)ccc3nc2SCc2ccccc2)CC1 in your answer. 16

Please report MIC for the following molecule: CN1CCN(CCNCc2cc3cc(-c4ccccc4)ccc3nc2SCc2ccccc2)CC1 16
